src = patent US11345702B1

Target desc: 15-PGDH/HPGD (Homo sapiens (Human), UniProt P15428)
Sequence (P15428 whole entry): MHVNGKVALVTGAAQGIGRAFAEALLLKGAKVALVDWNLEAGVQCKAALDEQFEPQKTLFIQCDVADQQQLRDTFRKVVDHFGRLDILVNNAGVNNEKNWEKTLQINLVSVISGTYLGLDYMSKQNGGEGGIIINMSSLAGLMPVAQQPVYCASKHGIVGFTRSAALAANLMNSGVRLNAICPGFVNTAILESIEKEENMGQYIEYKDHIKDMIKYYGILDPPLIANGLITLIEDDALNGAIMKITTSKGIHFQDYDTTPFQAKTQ
Experimental details: hPGDH inhibitor screening biochemical assay
Condition parameters: read-out: hPGDH: Average IC50
The compounds listed here are annotated with their IC50.

Entry CS(=O)(=O)c1ccc(-n2ccc3cc(C(=O)N4CCCCC4)cnc32)cc1 [MF-DH-310] : IC50 on 15-PGDH/HPGD (Homo sapiens (Human), UniProt P15428) = < 100 nM

Entry COc1cccc(-n2nc(Cl)c3cc(C(=O)N4CCCCC4)ccc32)c1 [MF-DH-272] : IC50 on 15-PGDH/HPGD (Homo sapiens (Human), UniProt P15428) = 100 to 1000 nM

Entry NC(=O)c1ccc(-n2cc(Cl)c3cc(C(=O)N4CCC(F)CC4)cnc32)cc1 [MF-DH-382] : IC50 on 15-PGDH/HPGD (Homo sapiens (Human), UniProt P15428) = < 100 nM
